% efficacy for assorted compounds
test system: Plasmopara viticola; assay: Plasmopara test (grapevines) / preventive; format: in vivo; settings: grapevine plants, preventive spray, 10 ppm of active ingredient, evaluated 6 days after inoculation
Respond numerically; units are % and should not be typed.

1. CC(Oc1ccccc1)C(=O)Nc1nc(CON=C(c2cccs2)c2noc(=O)n2C)cs1 (stereo not shown) [Example 80]; 100
2. C#CCCOC(=O)Nc1cccc(CON=C(c2ccncc2)c2noc(=O)n2C)n1 [Example 45]; 91
3. Cn1c(C(=NOCc2csc(NC(=O)C3CCc4ccccc4O3)n2)c2ccsc2)noc1=O (stereo not shown) [Example 69]; 92

// query Which % efficacy value is on record for Cn1c(C(=NOCc2csc(NC(=O)OC(C)(C)C)n2)c2ccsc2)noc1=O [Example 16] ?
// result 99
